The entries below are paired with their reported pest or weed control at 200 ppm.
# System: Thrips tabaci
# assayText: Thrips tabaci (onion thrips) leaf disc spray test
# Format: in vivo
# runConditions: foliar, 168 h, 200 ppm spray on sunflower leaf discs, mixed ages, 7 days, mortality

compound	measuredTarget	pest or weed control at 200 ppm
Cc1cc(C2=NOC(c3cc(Cl)cc(Cl)c3)(C(F)(F)F)C2)ccc1C(=O)NCC1CCN(C)O1 (stereo not shown)	Thrips tabaci	≥ 80%
Cc1cc(C2=NOC(c3cc(Cl)cc(Cl)c3)(C(F)(F)F)C2)ncc1C(=O)N[C@@H]1CON(CC(F)(F)F)C1=O (stereo partly shown)	Thrips tabaci	≥ 80%
Cc1cc(C2=NOC(c3cc(Cl)cc(Cl)c3)(C(F)(F)F)C2)ccc1C(=O)N[C@H]1CON(C)C1=O (stereo partly shown) [Compound E1]	Thrips tabaci	≥ 80%
CCCCN1OC[C@@H](NC(=O)c2ccc(C3=NOC(c4cc(Cl)cc(Cl)c4)(C(F)(F)F)C3)cc2C)C1=O (stereo partly shown)	Thrips tabaci	≥ 80%
CCN1OC(CNC(=O)c2ccc(C3=NOC(c4cc(Cl)cc(Cl)c4)(C(F)(F)F)C3)cc2C)CC1=O (stereo not shown)	Thrips tabaci	≥ 80%
CCN1OC[C@H](NC(=O)c2ccc(C3=NOC(c4cc(Cl)cc(Cl)c4)(C(F)(F)F)C3)cc2C)C1=O (stereo partly shown) [Compound E2]	Thrips tabaci	≥ 80%
Cc1cc(C2=NOC(c3cc(Cl)cc(Cl)c3)(C(F)(F)F)C2)ccc1C(=O)NCC1CCN(Cc2ccccc2)O1 (stereo not shown)	Thrips tabaci	≥ 80%

Where these numbers come from: patent US10206400B2
